# assayed_target: UniProt Q7TQP3
# Sequence (whole entry): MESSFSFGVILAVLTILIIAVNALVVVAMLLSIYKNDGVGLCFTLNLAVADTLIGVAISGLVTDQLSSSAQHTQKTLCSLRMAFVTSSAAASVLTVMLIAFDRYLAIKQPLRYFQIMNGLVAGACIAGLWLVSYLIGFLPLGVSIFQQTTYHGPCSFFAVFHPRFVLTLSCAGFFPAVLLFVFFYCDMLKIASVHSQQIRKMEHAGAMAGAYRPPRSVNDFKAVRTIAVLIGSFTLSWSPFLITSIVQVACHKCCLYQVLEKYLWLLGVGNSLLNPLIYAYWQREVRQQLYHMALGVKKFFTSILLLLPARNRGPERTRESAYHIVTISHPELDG
# measurement_notes: Agonist activity at mouse GPR119 receptor expressed in CHO-K1 cells assessed as cAMP accumulation after 30 mins by HTRF assay relative to AR231453
# Assay type: functional, cell-based
metric: Emax (%)
Dear colleague, please return just the value in %, with no unit written.

// Emax lookup, key: CC(C)(C)OC(=O)N1CCC(CCCNc2ccc3c(c2)CCS3(=O)=O)CC1 83

Subsequent entry: CC(C)(C)OC(=O)N1CCC(CCCNc2ccc3c(c2)C(=O)CC3)CC1 110

Please answer likewise for CC(C)(C)OC(=O)N1CCC(CCCNc2ccc3c(c2)NNS3(=O)=O)CC1 95
